Tested on: JNK1 mRNA
measurementDescription: Northern assay of JNK1 mRNA expression in A549 cells
Type: cell-based, human
assaySetup: JNK1 mRNA, t = 72 h; 300 nM for 20 hours then 200 nM for 4 hours
Strand notation (5' to 3'): a small letter for the sugar, then the base; units joined by * are phosphorothioate-linked, units joined directly phosphodiester-linked; [ ] holds rarer units or linkages, { } end groups; capitals alone tell only the bases. e = 2'-O-(2-methoxyethyl) (MOE); [5mC] = 5-methylcytosine; d = 2'-deoxy (DNA)

[
  {
    "substance": "15347 (antisense CTCTCTGTAGGCCCGCTTGG; sugars from the 5' end e5 d9 e6, [5mC] at 1, 3, 5, 16, linkages o4 s10 o5 (s phosphorothioate, o phosphodiester), methylation of C not given here) [compound 15347]",
    "RNA % Control, %": 8.2
  },
  {
    "substance": "15345 (antisense e[5mC]*eT*e[5mC]*eT*e[5mC]*eT*eG*eT*eA*eG*eG*e[5mC]*e[5mC]*e[5mC]*eG*e[5mC]*eT*eT*eG*eG) [compound 15345]",
    "RNA % Control, %": 187.4
  },
  {
    "substance": "12539 (antisense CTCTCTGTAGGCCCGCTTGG; DNA, all phosphorothioate, methylation of C not given here) [compound 12539]",
    "RNA % Control, %": 11.7
  },
  {
    "substance": "15350 (antisense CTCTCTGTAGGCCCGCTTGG; sugars from the 5' end d9 e11, [5mC] at 12, 13, 14, 16, linkages s9 o10 (s phosphorothioate, o phosphodiester), methylation of C not given here) [compound 15350]",
    "RNA % Control, %": 54.4
  }
]
